Reported EC50 values for a set of compounds
Measurement Target: F508delCFTR (Homo sapiens, UniProt P13569, DEL508-508)
Construct: expressed in transfected cells; host or cells: CFBE41o- human lung-derived epithelial cells (CFBE41o-F508delCFTR-HRP), doxycycline-inducible
Sequence (P13569 with tags, fused parts or gaps DEL508-508): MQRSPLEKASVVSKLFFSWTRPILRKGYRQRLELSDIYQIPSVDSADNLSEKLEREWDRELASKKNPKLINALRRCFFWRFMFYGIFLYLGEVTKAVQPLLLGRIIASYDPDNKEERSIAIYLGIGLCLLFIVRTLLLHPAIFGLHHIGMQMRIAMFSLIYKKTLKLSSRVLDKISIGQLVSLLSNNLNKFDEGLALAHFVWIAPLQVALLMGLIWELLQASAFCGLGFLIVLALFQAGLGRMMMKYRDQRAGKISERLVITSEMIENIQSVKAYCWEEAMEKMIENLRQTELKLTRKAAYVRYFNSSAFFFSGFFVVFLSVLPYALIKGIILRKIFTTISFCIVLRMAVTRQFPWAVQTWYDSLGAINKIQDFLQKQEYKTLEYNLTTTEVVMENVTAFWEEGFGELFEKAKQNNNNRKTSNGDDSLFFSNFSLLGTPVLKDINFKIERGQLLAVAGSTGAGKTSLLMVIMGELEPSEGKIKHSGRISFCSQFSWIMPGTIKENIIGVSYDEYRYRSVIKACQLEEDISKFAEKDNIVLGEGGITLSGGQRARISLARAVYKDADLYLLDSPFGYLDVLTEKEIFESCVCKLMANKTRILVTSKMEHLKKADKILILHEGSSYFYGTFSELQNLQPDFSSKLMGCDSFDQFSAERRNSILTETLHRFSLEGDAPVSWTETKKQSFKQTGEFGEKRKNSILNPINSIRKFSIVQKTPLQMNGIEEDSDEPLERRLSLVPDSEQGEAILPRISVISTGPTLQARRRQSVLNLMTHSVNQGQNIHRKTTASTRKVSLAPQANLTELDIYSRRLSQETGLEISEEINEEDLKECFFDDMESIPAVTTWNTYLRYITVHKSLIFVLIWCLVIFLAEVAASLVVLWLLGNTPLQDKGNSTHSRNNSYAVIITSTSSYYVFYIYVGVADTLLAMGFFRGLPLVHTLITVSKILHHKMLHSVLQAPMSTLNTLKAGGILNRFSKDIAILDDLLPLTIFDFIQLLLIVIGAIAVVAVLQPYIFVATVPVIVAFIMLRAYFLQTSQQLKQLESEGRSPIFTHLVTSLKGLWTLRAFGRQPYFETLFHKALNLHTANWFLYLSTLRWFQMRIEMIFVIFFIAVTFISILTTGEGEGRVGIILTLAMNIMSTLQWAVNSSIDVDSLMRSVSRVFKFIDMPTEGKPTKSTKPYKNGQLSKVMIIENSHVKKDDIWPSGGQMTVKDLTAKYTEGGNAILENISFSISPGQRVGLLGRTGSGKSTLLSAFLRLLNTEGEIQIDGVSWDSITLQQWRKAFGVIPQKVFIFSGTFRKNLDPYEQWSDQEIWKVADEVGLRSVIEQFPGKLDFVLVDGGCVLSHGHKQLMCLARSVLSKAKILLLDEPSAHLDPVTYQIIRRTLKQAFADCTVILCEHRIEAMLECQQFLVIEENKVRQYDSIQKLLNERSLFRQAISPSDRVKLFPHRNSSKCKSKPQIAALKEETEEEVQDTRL
Method Description: Cell Surface Expression-Horse Radish Peroxidase (CSE-HRP) assay, test compound without co-corrector
Type: cell-based
Test Conditions: CSE-HRP assay, test compound without co-corrector
Metric: EC50

Compound	Experimental Value
CCC1(C(=O)NS(=O)(=O)c2ccc(OC(F)(F)F)cc2)CCc2c(Cl)cccc21 (centres unmarked)	≥ 10 µM
COc1ccc(N2CCCC2)c2c1CCCC2C(=O)NS(=O)(=O)c1cccc2ccccc12 (centres unmarked)	≥ 10 µM
CCC1(C(=O)NS(=O)(=O)c2ccc(Cl)cc2)CCc2c(Cl)cccc21 (centres unmarked)	3 to 10 µM
CCC1(C(=O)NS(=O)(=O)c2c(F)cccc2F)CCc2c(Cl)cccc21 (centres unmarked)	< 3 µM
CCC1(C(=O)NS(=O)(=O)c2ccccc2C#N)CCc2c(Cl)cccc21 (centres unmarked)	≥ 10 µM
Cc1ccccc1S(=O)(=O)NC(=O)C1CCc2c(-c3ccnc(F)c3)cccc21 (centres unmarked)	≥ 10 µM
COc1ccc(-c2ccc(C)cc2)c2c1C(C(=O)NS(=O)(=O)c1cccc3ccccc13)CCC2 (centres unmarked)	< 3 µM
COc1ccc(C(=O)N(C)C)c2c1C(C(=O)NS(=O)(=O)c1cccc3ccccc13)CC2 (centres unmarked)	≥ 10 µM
COc1ccc(-c2ccc(C(F)(F)F)nc2)c2c1C(C(=O)NS(=O)(=O)c1cccc3ccccc13)CCC2 (centres unmarked)	3 to 10 µM
N#CC1(C(=O)NS(=O)(=O)c2cccc3ccccc23)CCCc2cccc(Cl)c21 (centres unmarked)	≥ 10 µM
COc1ccc(-c2ccc(C(F)(F)F)cc2)c2c1CCCC2C(=O)NS(=O)(=O)c1cccc2ccccc12 (centres unmarked)	< 3 µM
CCC1(C(=O)NS(=O)(=O)c2ccc(C)cc2)CCc2c(Cl)cccc21 (centres unmarked)	< 3 µM
COc1ccc(Br)c2c1C(C(=O)NS(=O)(=O)c1cccnc1N)CC2 (centres unmarked)	3 to 10 µM
CCC1(C(=O)NS(=O)(=O)c2cccc(C#N)c2)CCc2c(Cl)cccc21 (centres unmarked)	≥ 10 µM
CCC1(C(=O)NS(=O)(=O)c2c(OC)cccc2OC)CCc2c(Cl)cccc21 (centres unmarked)	≥ 10 µM
COc1ccc(-c2cncnc2)c2c1C(C(=O)NS(=O)(=O)c1cccc3ccccc13)CCC2 (centres unmarked)	< 3 µM
O=C(NS(=O)(=O)c1cccc2ccccc12)C1CCc2c(Br)ccc(O)c21 (centres unmarked)	3 to 10 µM
CCC1(C(=O)NS(=O)(=O)c2ccc(C)cc2C)CCc2c(Cl)cccc21 (centres unmarked)	3 to 10 µM
CCC1(C(=O)NS(=O)(=O)c2cc(Cl)ccc2Cl)CCc2c(Cl)cccc21 (centres unmarked)	≥ 10 µM
COc1ccc(-c2ccc(C3CC3)nc2)c2c1C(C(=O)NS(=O)(=O)c1cccc3ccccc13)CCC2 (centres unmarked)	3 to 10 µM
CCC1(C(=O)NS(=O)(=O)c2cc[nH]n2)CCc2c(Cl)cccc21 (centres unmarked)	3 to 10 µM
CCC1(C(=O)NS(=O)(=O)c2cccc(N(C)CCOC)c2C)CCc2c(Cl)cccc21 (centres unmarked)	3 to 10 µM
CCC1(C(=O)NS(=O)(=O)C2CCCCC2)CCc2c(Cl)cccc21 (centres unmarked)	≥ 10 µM
COc1cccc2c1C(C(=O)NS(=O)(=O)c1cccc3ccccc13)CC2 (centres unmarked)	< 3 µM
CCC1(C(=O)NS(=O)(=O)c2cccc(Cl)c2C(=O)OC)CCc2c(Cl)cccc21 (centres unmarked)	≥ 10 µM
Cc1cncc(-c2cccc3c2CCC3C(=O)NS(=O)(=O)c2ccccc2C)c1 (centres unmarked)	≥ 10 µM
